Origin of measurements: PubChem BioAssay (NCI)

- Test system: MDA-MB-231 breast
- method-notes: NCI tumour cell line growth inhibition, 48 h
For each of the compounds below, state its TGI.

input: Quote TGI with test system MDA-MB-231 breast for Cc1ccc(S(=O)(=O)Oc2ccc3c4c(c(=O)oc3c2)CCCCCC4)cc1
output: > 100 µM

input: Provide TGI, tested on MDA-MB-231 breast, for Fc1ccc(-c2ncn(C3CCNCC3)c2-c2ccnc(Oc3ccc4c(c3)OCO4)n2)cc1 .
output: > 25 µM

input: Give TGI; test system MDA-MB-231 breast; compound CCOC(=O)N1C/C(=C\c2ccccc2)C(=O)/C(=C/c2ccccc2)C1
output: 5.3 µM

input: Enter measured TGI, system MDA-MB-231 breast, for the compound shown: CCc1cccc2c3c([nH]c12)-c1ccccc1NC(=O)C3
output: > 100 µM

input: Lab note: MDA-MB-231 breast assay, enter TGI for CC(C)(C)OC(=O)[C@@H]1CCC(=O)N1C1(c2ccccc2)c2ccccc2-c2ccccc21 here
output: 86.1 µM

input: State the measured TGI (MDA-MB-231 breast) of COc1cc(/C=C2\CC/C(=C\c3cc(OC)c(O)c(OC)c3)C2=O)cc(OC)c1O
output: 21.4 µM
